Exercise: state measured LC20 for each of the molecules provided.
System: HEK293 cells
Method summary: in vitro
Format: cell-based
Conditions: human, 24 h

Q: Data request, read-out LC20, for Oc1ccc(-c2n[nH]c(C(F)(F)F)c2-c2ccc(Cl)cc2)c(O)c1
Ans: 5 µg/mL

Q: Data request, read-out LC20, for CCOc1ccc(-c2[nH]nc(C(F)(F)F)c2-c2ccc(OC)cc2)c(O)c1
Ans: 3 µg/mL

Q: Data request, read-out LC20, for COc1ccc(-c2[nH]nc(C(F)(F)F)c2-c2ccc(Cl)cc2)c(O)c1
Ans: 6 µg/mL

Q: Data request, read-out LC20, for CCOc1ccc(-c2[nH]nc(C(F)(F)F)c2-c2ccc(OC)c(OC)c2)c(O)c1
Ans: 3 µg/mL
